tested on: MCP-1 induced chemotaxis of THP-1 cells; assay: MCP-1 Induced Chemotaxis in THP-1 Cells; format: cell-based; settings: Homo sapiens, MCP-1 0.01 μg/mL, 3 hours at 37° C., read-out: Inhibition of MCP-1 Induced Chemotaxis IC50
quantity: pIC50
// pIC50 is dimensionless: -log10 of concentration (M)

A selection of reference data follows.
stdin: Quickly give me recorded pIC50 for O=C(/C=C/c1cc(F)cc(Cl)c1)N1CCC(O)(C(O)CN2CCC(c3c[nH]c4ccccc34)CC2)CC1 (stereo not drawn)
stdout: 7.10

stdin: Quickly give me recorded pIC50 for COc1ccc(C2CCN(CC(CO)C3CCN(C(=O)/C=C/c4ccc(Cl)c(Cl)c4)CC3)CC2)cc1 (stereo not drawn)
stdout: 7.05

stdin: Quickly give me recorded pIC50 for COc1ccc(C2CCN(CC(O)C3(O)CCN(C(=O)/C=C/c4ccc(Cl)c(Cl)c4)CC3)CC2)cc1 (stereo not drawn)
stdout: 7.05

Further cases:
stdin: Quickly give me recorded pIC50 for O=C(/C=C/c1cc(F)c(F)c(F)c1)N1CCC(O)(C(O)CN2CCC(c3ccc(C(F)(F)F)cc3)CC2)CC1 (stereo not drawn)
stdout: 6.82

stdin: Quickly give me recorded pIC50 for O=C(/C=C/c1ccc(F)c(Br)c1)N1CCC(O)(C(O)CN2CCC(c3c[nH]c4ccccc34)CC2)CC1 (stereo not drawn)
stdout: 7.05

stdin: Quickly give me recorded pIC50 for COc1ccc(C2CCN(CC(O)C3CCN(C(=O)/C=C/c4cccc(C)c4)CC3)CC2)cc1 (stereo not drawn)
stdout: 7.15
